Sourced from ChEMBL document CHEMBL1145123

Species: Homo sapiens
ASSAY_TEXT: Affinity constant for binding to human 22-mer quadruplex
Type: functional
MEASURE: Ka (M⁻¹)

Solved entries:
[
  {
    "CHEMICAL_STRUCTURE": "O=C(CCN1CCCC1)Nc1ccc2cc3ccc(NC(=O)CCN4CCCC4)cc3nc2c1",
    "Ka, M⁻¹": 1300000
  },
  {
    "CHEMICAL_STRUCTURE": "Nc1ccc(Nc2c3ccc(NC(=O)CCN4CCCC4)cc3nc3cc(NC(=O)CCN4CCCC4)ccc23)cc1",
    "Ka, M⁻¹": 16000000
  }
]

(I) CN(C)c1ccc(Nc2c3ccc(NC(=O)CCN4CCCC4)cc3nc3cc(NC(=O)CCN4CCCC4)ccc23)cc1
(II) CN(C)CCNc1c2ccc(NC(=O)CCN3CCCC3)cc2nc2cc(NC(=O)CCN3CCCC3)ccc12
Exercise: Lab note: check whether I or II has the lower measured Ka. Mark your selection by writing its label.
Key: I
(I: 16000000 M⁻¹, II: 57000000 M⁻¹)

====

MEASURED_TARGET: Telomerase reverse transcriptase (Homo sapiens, UniProt O14746)
Sequence (O14746 whole entry): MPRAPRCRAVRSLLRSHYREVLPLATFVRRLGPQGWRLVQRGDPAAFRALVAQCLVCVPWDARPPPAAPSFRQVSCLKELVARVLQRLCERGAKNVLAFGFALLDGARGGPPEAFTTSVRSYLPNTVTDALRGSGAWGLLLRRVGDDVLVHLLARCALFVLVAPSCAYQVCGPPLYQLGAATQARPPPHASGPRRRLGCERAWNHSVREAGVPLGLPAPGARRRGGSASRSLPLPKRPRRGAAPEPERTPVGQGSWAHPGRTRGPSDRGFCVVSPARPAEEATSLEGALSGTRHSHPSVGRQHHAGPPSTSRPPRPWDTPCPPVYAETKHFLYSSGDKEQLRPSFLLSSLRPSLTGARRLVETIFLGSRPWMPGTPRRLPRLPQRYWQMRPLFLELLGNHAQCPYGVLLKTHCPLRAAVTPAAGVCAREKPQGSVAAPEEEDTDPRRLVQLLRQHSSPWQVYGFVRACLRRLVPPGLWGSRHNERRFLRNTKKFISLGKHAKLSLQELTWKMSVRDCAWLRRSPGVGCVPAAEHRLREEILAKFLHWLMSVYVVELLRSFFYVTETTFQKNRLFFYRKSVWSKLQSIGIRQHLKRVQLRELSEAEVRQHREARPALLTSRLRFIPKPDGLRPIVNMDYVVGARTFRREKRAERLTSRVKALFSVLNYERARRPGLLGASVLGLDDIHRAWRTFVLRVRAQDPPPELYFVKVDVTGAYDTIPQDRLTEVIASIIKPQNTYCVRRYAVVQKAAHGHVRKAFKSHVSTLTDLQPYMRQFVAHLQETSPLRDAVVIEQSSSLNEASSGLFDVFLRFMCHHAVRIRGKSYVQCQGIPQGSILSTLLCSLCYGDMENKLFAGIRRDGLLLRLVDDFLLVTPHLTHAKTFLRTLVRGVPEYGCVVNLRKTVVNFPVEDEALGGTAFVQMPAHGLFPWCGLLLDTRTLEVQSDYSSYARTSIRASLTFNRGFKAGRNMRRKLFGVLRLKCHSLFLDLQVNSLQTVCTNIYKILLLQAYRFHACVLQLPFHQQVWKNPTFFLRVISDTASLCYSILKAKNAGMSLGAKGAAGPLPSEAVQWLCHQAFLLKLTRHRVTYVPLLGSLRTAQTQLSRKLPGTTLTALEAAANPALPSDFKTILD
ASSAY_TEXT: Inhibitory activity against human telomerase
pEC50: −log10 of the molar value.
MEASURE: pEC50

Solved entries:
[
  {
    "CHEMICAL_STRUCTURE": "CN(C)CCCNc1c2ccc(NC(=O)CCN3CCCC3)cc2nc2ccc(NC(=O)CCN3CCCC3)cc12",
    "pEC50": 7.10
  },
  {
    "CHEMICAL_STRUCTURE": "CSc1cccc(Nc2c3ccc(NC(=O)CCN4CCCC4)cc3nc3cc(NC(=O)CCN4CCCC4)ccc23)c1",
    "pEC50": 7.00
  },
  {
    "CHEMICAL_STRUCTURE": "Nc1ccc(Nc2c3cc(NC(=O)CCN4CCCC4)ccc3nc3ccc(NC(=O)CCN4CCCC4)cc23)cc1",
    "pEC50": 6.70
  },
  {
    "CHEMICAL_STRUCTURE": "Nc1ccccc1Nc1c2cc(NC(=O)CCN3CCCC3)ccc2nc2ccc(NC(=O)CCN3CCCC3)cc12",
    "pEC50": 6.77
  }
]

(a) O=C(CCN1CCCC1)Nc1ccc2c(NC3CCCCC3)c3cc(NC(=O)CCN4CCCC4)ccc3nc2c1
(b) COc1cccc(Nc2c3cc(NC(=O)CCN4CCCC4)ccc3nc3ccc(NC(=O)CCN4CCCC4)cc23)c1
(c) O=C(CCN1CCCC1)Nc1ccc2c(NC3CC3)c3ccc(NC(=O)CCN4CCCC4)cc3nc2c1
(d) CN(C)CCNc1c2ccc(NC(=O)CCN3CCCC3)cc2nc2cc(NC(=O)CCN3CCCC3)ccc12
Exercise: Arrange items by their pEC50 values in increasing order. Response field: labels, in requested order.
Key: b, a, c, d
(b: 5.56, a: 6.68, c: 7.30, d: 7.74)

====

MEASURED_TARGET: Telomerase reverse transcriptase (Homo sapiens)
ASSAY_TEXT: Inhibitory activity against human telomerase
MEASURE: EC50 (nM)

[
  {
    "COMPOUND": "O=C(CCN1CCCC1)Nc1ccc2c(NC3CCCCC3)c3ccc(NC(=O)CCN4CCCC4)cc3nc2c1",
    "OBSERVED_MEASUREMENT": 90
  }
]

(P) Nc1cccc(Nc2c3ccc(NC(=O)CCN4CCCC4)cc3nc3ccc(NC(=O)CCN4CCCC4)cc23)c1
(Q) O=C(CCN1CCCC1)Nc1ccc2c(Nc3ccccc3)c3cc(NC(=O)CCN4CCCC4)ccc3nc2c1
(R) O=C(CCN1CCCC1)Nc1ccc2c(NCCN3CCCCC3)c3ccc(NC(=O)CCN4CCCC4)cc3nc2c1
(S) Nc1ccc(Nc2c3ccc(NC(=O)CCN4CCCC4)cc3nc3ccc(NC(=O)CCN4CCCC4)cc23)cc1
(T) CN(C)c1cccc(Nc2c3cc(NC(=O)CCN4CCCC4)ccc3nc3ccc(NC(=O)CCN4CCCC4)cc23)c1
Exercise: Arrange items by their EC50 values in increasing order. Response field: labels, in requested order.
Key: R, S, P, T, Q
(R: 50 nM, S: 80 nM, P: 210 nM, T: 600 nM, Q: 1330 nM)
